biological target: human GPR84 receptor (Homo sapiens); construct: host or cells: HEK293, transient transfection; experiment: Gαi biosensor BRET assay in HEK293 cells (antagonism of ZQ-16); format: cell-based; conditions: HEK293, single concentration 10 μM (designated F)
Sequence (Q9NQS5 whole entry): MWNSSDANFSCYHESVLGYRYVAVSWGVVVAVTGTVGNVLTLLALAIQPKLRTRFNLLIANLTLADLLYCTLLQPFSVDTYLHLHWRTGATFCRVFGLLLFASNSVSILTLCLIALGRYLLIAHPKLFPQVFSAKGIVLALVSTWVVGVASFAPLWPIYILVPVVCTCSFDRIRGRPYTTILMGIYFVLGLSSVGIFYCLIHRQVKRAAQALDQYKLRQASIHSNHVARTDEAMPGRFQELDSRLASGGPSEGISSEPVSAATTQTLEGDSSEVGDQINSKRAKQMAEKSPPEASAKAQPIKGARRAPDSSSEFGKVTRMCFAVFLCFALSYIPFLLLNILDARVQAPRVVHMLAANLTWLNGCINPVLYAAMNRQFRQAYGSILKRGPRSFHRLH
OBSERVABLE: inhibition at 10 µM

Some compounds with recorded inhibition at 10 µM:
Sample Cc1cc(C#CCN2CCCCC2=O)ccc1-c1cn(CC2CCCCO2)nn1 (centres unmarked) [Compound I-205] — what was its inhibition at 10 µM?
25 to 50%

For CC(C)Oc1cc(C#CCNc2ccccn2)cnc1-c1cn(CC2CC(C)(C)CO2)nn1 (centres unmarked) [Compound I-606] then?
50 to 75%

C=C(c1cn(C[C@H]2CCCCO2)nn1)c1cccc(C#CC2CC2)c1C [Compound I-742] ?
> 75%

// next record COC(C)Cn1cc(-c2ccc(C#CC3CC3)cc2C)nn1 (centres unmarked) [Compound I-132]
25 to 50%

Read the next record carefully.
Item under review: COC1CN(c2ccc(-c3cn(CC4CCCCO4)nn3)c(C)c2)C1 (centres unmarked) [Compound I-507] . Reported inhibition at 10 µM?
25 to 50%
